# Test system: HEK-293T
# ASSAY NAME: Multiplex assay against HEK293T
# Assay type: toxicity, cell-based
# RUN PARAMETERS: human, 12 h, 10 µM, compound concentration 10 uM, replicate 1
So I've got a bunch of molecules here, and I need their Population Normal (%) values.
One number for each entry, in %.

COc1cc2ncnc(Nc3ccc(F)c(Cl)c3)c2cc1NC(=O)/C=C/CN1CCCCC1 [DACOMITINIB ANHYDROUS]	87
CCN1CCN(c2ccc(Nc3cc(N(C)C(=O)Nc4c(Cl)c(OC)cc(OC)c4Cl)ncn3)cc2)CC1	85
O=C(Nc1cccnn1)N1CCC(=Cc2cccc(Oc3ccc(C(F)(F)F)cn3)c2)CC1	90
O=C(Nc1ccc(Cl)cc1)Nc1cccc(-c2cccc(N3CCCC3)n2)c1	68
CNc1cc(Oc2cc(C(=O)Nc3cc(N4CCN(C)CC4)cc(C(F)(F)F)c3)ccc2C)ncn1	78
Cc1cn(-c2cc(NC(=O)c3ccc(C)c(Nc4nccc(-c5cccnc5)n4)c3)cc(C(F)(F)F)c2)cn1	51

I have 4 molecules here; please give me Population Normal (%) for each one.
1. CN1C2CCC1CC(OC(c1ccc(F)cc1)c1ccc(F)cc1)C2.Cl (stereo not given)
2. CCn1cc(-c2ccnc3[nH]c(-c4cccc(CN(C)C)c4)cc23)c(-c2ccc(NC(=O)N(C)C)cc2)n1
3. CN1CCN(C(=O)C(C)(C)c2ccc(C(=O)Nc3cn4cc(-c5cc(C(C)(C)C)cc(C(C)(C)C)c5)ccc4n3)cc2)CC1
4. NC(=O)c1cccc(-c2cc(Nc3ccc(OC(F)(F)F)cc3)ncn2)c1

Result:
1: 86; 2: 75; 3: 81; 4: 82

I have 3 molecules here; please give me Population Normal (%) for each one.
1. Cc1cc(C)c(S(=O)(=O)N(Cc2ccc(-c3cccc(S(C)(=O)=O)c3)cc2)Cc2ccc(C(F)(F)F)o2)c(C)c1
2. COCC(=O)NC/C=C/c1ccc2ncnc(Nc3ccc(Oc4ccc(C)nc4)c(C)c3)c2c1
3. O=C(Nc1ccc(-c2ccnc(Nc3ccc(N4CCOCC4)cc3)n2)cc1)[C@@H]1CCCN1

Result:
1: 85; 2: 80; 3: 81

I have 6 molecules here; please give me Population Normal (%) for each one.
1. CCc1cccc(CC)c1NC(=O)c1nn(C)c2c1CCc1cnc(Nc3ccc(C(=O)NC4CCN(C)CC4)cc3OC(F)(F)F)nc1-2
2. CCOC(=O)c1c(C)[nH]c2ccc3c(c12)CN1CCc2cc(OC)ccc2C1O3 (stereo not given)
3. S=C(NCCCc1c[nH]cn1)NCCCN(Cc1ccc(Cl)c(Cl)c1)c1ccc(Br)cn1
4. O=C1N/C(=N/c2ccccc2F)S/C1=C\c1ccc(C(=O)O)cc1
5. CCN1CCN(Cc2ccc(Nc3ncc(F)c(-c4cc(F)c5nc(C)n(C(C)C)c5c4)n3)nc2)CC1.CS(=O)(=O)O
6. CN(C)C(=O)C(CCN1CCC(O)(c2ccc(Cl)cc2)CC1)(c1ccccc1)c1ccccc1.Cl [LOPERAMIDE HYDROCHLORIDE]

Result:
88
79
86
85
74
79

Ask: Missing value: Population Normal (%), HEK-293T, entry CCCn1c(=O)c2[nH]c(-c3cnn(Cc4cccc(C(F)(F)F)c4)c3)nc2n(CC)c1=O . Fill in?
Result: 74
